Test: NCI Yeast Anticancer Drug Screen. Data for the rad14 strain (AID 159)
Settings: S. cerevisiae rad14 strain growth inhibition; at 100.0 µM; active compounds read high
About 79,000 compounds went through this panel and 15% of them were active in at least one assay; those are over-represented in the sample as a whole.
Answer Not satisfied if growth inhibition is under 60%, and Satisfied if it is 60% or more.

| compound | classification |
| --- | --- |
| Cc1ccc(CC2(OCCN(C)C)CCC(C(C)(C)C)CC2)cc1 (configuration not stated) | Satisfied |
| C/C=C/SC(=Nc1ccccc1)Nc1ccccc1 | Satisfied |
| O=[n+]1c2ccccc2n([O-])c2cc(Br)ccc21 | Satisfied |
| Cn1c(=O)c2c(nc(N)n2C2OC(CO)C(O)C2O)n(C)c1=O (configuration not stated) | Not satisfied |
| O=C1CC(=O)c2ccccc21 | Not satisfied |
| C#CCN(Cc1ccc2nc(N)[nH]c(=O)c2c1)c1ccc(C(=O)NC(CCC(=O)O)C(=O)O)cc1 (configuration not stated) | Satisfied |
| O=P(NC1CCCCC1)(OCc1ccccc1)OCc1ccccc1 | Not satisfied |
| COC1=C(OC)C(=O)C(Sc2ccc3ccccc3c2)=CC1=O | Satisfied |
| O=C1Nc2ccc(Br)cc2C1=Nc1ccc2c(c1)OCO2 | Not satisfied |
| Clc1ccc2c(c1)N(CCCN1CCCC13CCCCC3)c1ccccc1S2 | Not satisfied |
| Cc1cc(=O)oc2c(C)c3occc(=O)c3cc12 | Not satisfied |
